Biological target: T1, R788E (Drosophila melanogaster, UniProt Q9W1K4 512-819, R788E)
T1 sequence: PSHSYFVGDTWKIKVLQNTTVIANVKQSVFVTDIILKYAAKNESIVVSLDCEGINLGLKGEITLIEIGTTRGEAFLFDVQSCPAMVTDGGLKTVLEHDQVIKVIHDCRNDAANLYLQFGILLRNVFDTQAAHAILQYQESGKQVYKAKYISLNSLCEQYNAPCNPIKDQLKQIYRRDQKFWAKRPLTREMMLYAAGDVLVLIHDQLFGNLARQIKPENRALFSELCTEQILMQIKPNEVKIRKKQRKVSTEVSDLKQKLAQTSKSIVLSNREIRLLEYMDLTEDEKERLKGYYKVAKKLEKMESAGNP
Assay: fluorescence anisotropy; FA: 20 mM HEPES-NaOH pH 7.5, 100 mM NaCl, 10% glycerol, 20 C, 10 nM FAM-RNA; competition: 150 nM Egl512-819 + 10 nM FAM-K10 TLS, same buffer
Conditions: protein: recombinant; tags: N-terminal GST; label: 5'-6-FAM; hairpin with two bulges
measure: Kd (nM)
Response body: numeric value in nM, unit text excluded.

Kd measured on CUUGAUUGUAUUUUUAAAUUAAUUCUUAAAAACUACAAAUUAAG (structured_RNA) [K10 TLS (FAM)] = 313
